Every entry's value here was drawn from the MegaScale stability set (Tsuboyama et al. 2023).

B1: EEHEE_rd4_0763 (parent)
chain: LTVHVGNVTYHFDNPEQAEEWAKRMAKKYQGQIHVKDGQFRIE

- Variants of: B1
- EXPERIMENT: folding stability dG (cDNA display proteolysis); higher = more stable
- ASSAY CONDITIONS: PBS, room temperature
Threshold rule: folding stability dG greater than or equal to 1 kcal/mol is 1 (yes); below that, 0 (no).

POLYMER SEQUENCE: LTVHVGNVTYHFDNPEQAEEHAKRMAKKYQGQIHVKDGQFRIE
LABEL CLASS: 0 (no)
--
POLYMER SEQUENCE: LTVHVGNVTYHFDNPEQAEEWAKRMAKKYQGQIHVKDGNFRIE
LABEL CLASS: 1 (yes)

(Q) Assess whether reported folding stability dG for LTVHVGNVTYHFDEPEQAEEWAKRMAKKYQGQIHVKDGQFRIE sits at 1 kcal/mol or higher.
(A) 1 (yes)

(Q) Confirm if folding stability dG reported for the variant LTVRVGNVTYHFDNPEQAEEWAKRMAKKYQGQIHVKDGQFRIE is 1 kcal/mol or above.
(A) 1 (yes)

(Q) Please indicate if the recorded folding stability dG for LTVHVGNVTYHFDNPEQAEEWAKRMAKKYFGQIHVKDGQFRIE meets or exceeds 1 kcal/mol.
(A) 1 (yes)

(Q) Determine whether this variant has folding stability dG no lower than 1 kcal/mol: LTVHVGNVTYHFDNPEQAEEWAKRMAKKYQGQIHVKDYQFRIE
(A) 0 (no)

(Q) Reported folding stability dG at or above 1 kcal/mol? LTVHVGNVTYHFDNPEQAEEWAKRMIKKYQGQIHVKDGQFRIE
(A) 1 (yes)

(Q) Test whether the variant LTVHVGNVTYHFDNPEQAEEWWKRMAKKYQGQIHVKDGQFRIE records folding stability dG of 1 kcal/mol or higher.
(A) 1 (yes)

(Q) Hello, I need to know if LTVHVGNVTYHRDNPEQAEEWAKRMAKKYQGQIHVKDGQFRIE has measured folding stability dG not below 1 kcal/mol. Thanks!
(A) 0 (no)

(Q) Would you say LTVHVGNVTYHFDNPVQAEEWAKRMAKKYQGQIHVKDGQFRIE shows folding stability dG at minimum 1 kcal/mol?
(A) 1 (yes)

(Q) Does folding stability dG meet or surpass 1 kcal/mol for LTVHVGNVTYHFDNPEQAEEWAKRMAKKYQGQIHVKDGQFAIE ?
(A) 1 (yes)
